Molecular target: dopamine transporter (DAT) (Rattus norvegicus (Rat), UniProt P23977)
Sequence (P23977 whole entry): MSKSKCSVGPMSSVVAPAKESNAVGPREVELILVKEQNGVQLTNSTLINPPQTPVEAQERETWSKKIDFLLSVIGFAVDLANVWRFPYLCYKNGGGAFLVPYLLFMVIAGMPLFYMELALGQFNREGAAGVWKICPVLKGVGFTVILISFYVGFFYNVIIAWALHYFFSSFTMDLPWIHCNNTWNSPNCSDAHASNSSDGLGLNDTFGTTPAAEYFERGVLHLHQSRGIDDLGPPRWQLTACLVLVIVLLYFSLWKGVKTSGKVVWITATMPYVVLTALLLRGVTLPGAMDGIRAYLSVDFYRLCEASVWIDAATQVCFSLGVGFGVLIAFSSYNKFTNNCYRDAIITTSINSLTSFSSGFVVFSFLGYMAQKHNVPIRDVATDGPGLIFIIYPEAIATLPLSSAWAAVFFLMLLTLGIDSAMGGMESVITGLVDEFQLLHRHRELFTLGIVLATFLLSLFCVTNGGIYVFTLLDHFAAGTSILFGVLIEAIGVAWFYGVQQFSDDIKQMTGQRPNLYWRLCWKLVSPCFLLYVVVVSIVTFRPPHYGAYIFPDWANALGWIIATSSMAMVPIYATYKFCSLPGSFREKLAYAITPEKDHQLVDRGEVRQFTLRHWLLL
Assay: [3H]dopamine (DA) uptake inhibition in rat brain (caudate) synaptosomes
Conditions: rat caudate synaptosomes, 5 nM [3H]dopamine, mean ± SD
testReadout: EC50

Just so you know, measured EC50 for CS(=O)(=O)Nc1ccc(-c2nc(NCC(c3ccccn3)c3ccc[nH]3)c3ccccc3n2)cc1 (centres unmarked) came out at 379 nM

Sample CS(=O)(=O)Nc1ccc(-c2nc(NC(Cc3ccccc3)c3ccccc3)c3ccccc3n2)cc1 (centres unmarked) ; EC50 observed: 50 nM

Entry under test: CS(=O)(=O)Nc1ccc(-c2nc(NCC(O)(c3ccccc3)c3ccccc3)c3ccccc3n2)cc1 . Its EC50 was 11 nM

Value of measured EC50 for the entry CN(C)c1ccc(-c2nc(NCC(c3ccccc3)c3ccccn3)c3ccccc3n2)cc1 (centres unmarked) : 22 nM

Lab book: EC50 of Cc1ccc(-c2nc(NCC(c3ccccc3)c3cccc(Cl)n3)c3ccccc3n2)cc1 (centres unmarked) noted as 380 nM

The recorded EC50 for CS(=O)(=O)Nc1ccc(-c2nc(NCC(c3ccccc3)c3ccccn3)c3ccccc3n2)cc1 (centres unmarked) is 50 nM

According to the records, this molecule CN(C)c1ccc(-c2nc(NCC(Oc3ccccc3)c3ccccc3)c3ccccc3n2)cc1 (centres unmarked) displays EC50 of 42 nM

Entry CS(=O)(=O)Nc1ccc(-c2nc(NCC(c3ccccc3)c3ccc[nH]3)c3ccccc3n2)cc1 (centres unmarked) — recorded EC50 = 43 nM
